Sourced from ChEMBL document CHEMBL1201862

Tested on: HCT-116
Test method notes: NCI tumour cell line growth inhibition, 48 h
Counter-ions that a name gives are not always drawn. Active and inactive are the calls of the source. Rule as the data show it: active = GI50 up to about 1.1 µM and inactive = higher. Non-standard residues stand in square brackets, D forms with d. Residues, ends and D or L forms follow the SMILES beside them.
Reported metric: GI50

Given the entry COc1ccc(C(C#N)NCCCCCCNC(C#N)c2ccc(OC)cc2)cc1 (stereo unspecified) , report its measured GI50.
> 100 µM (inactive)

What value of GI50 has been reported for the following compound? COC(=O)/C(=N/O)C(C(=O)OC)C(=O)C(=O)Nc1c(Cl)cc(C)cc1S(=O)(=O)O (stereo unspecified)
43.8 µM (inactive)

Report GI50 for "O=c1c2ccccc2nc(-c2ccccc2)n1/N=C/c1ccccc1[N+](=O)[O-]" please.
40.5 µM (inactive)

Quick one: GI50 for C/C1=C\CC[C@@]2(C)O[C@@H]2C[C@@H](C2(C)CO2)CC/C(C)=C/CC1 (stereo partly specified) ?
20.4 µM (inactive)

// returns reported GI50 for input "COc1cc(O)c(C(=O)/C=C/c2ccc(O)cc2)cc1Oc1ccc(C(=O)/C=C/c2ccc(O)cc2)c(O)c1"
1.8 µM (inactive)

Consider the compound shown here: CSCC[C@H](NC(=O)[C@@H](N)CC(N)=O)C(=O)N[C@@H](Cc1c[nH]c2ccccc12)C(=O)N[C@@H](CCC(N)=O)C(=O)N[C@@H](CCC(=O)O)C(=O)N[C@H](C(=O)NCC(=O)N[C@@H](CCCCN)C(=O)N[C@H](C)C(=O)O)C(C)C (H-NMWQEVGK[dA]-OH) What is its recorded GI50?
> 100 µM (inactive)

What value of GI50 has been recorded for this entry: "CCOC(=O)NN1C(=O)C(=P(c2ccccc2)(c2ccccc2)c2ccccc2)C(C(=O)OCC)=C1C"
> 100 µM (inactive)

Would you mind telling me what GI50 value was observed for "COc1cc(C)c(C(=O)/C=C/c2cc(OC)c(O)c(OC)c2)cc1O" ?
14.1 µM (inactive)

What value of GI50 has been recorded for this entry: FC1(F)[Se]C2C3CCC(C3)C2C1(F)F (stereo unspecified)
56.2 µM (inactive)

Consider the compound shown here: N=C(N)c1ccc(-c2ccc(-c3ccc(C(=N)N)cc3)o2)cc1 [FURAMIDINE HYDROCHLORIDE] What is its recorded GI50?
28.8 µM (inactive)

Any idea what its GI50 is? The compound is "CCOc1cnc(C(O)(c2ccccc2)c2ccccc2)o1"
> 100 µM (inactive)

----------
Answer each item with its documented GI50.
Tested on: RXF 393
Test method notes: NCI tumour cell line growth inhibition, 48 h
The source made the active and inactive calls. No stated cut-off is given here; in the data, active = GI50 up to about 1.1 µM and inactive = higher. Starred links: 1 amine or outer side, 2 acyl side, 3 side chain; linkers in the order of their positions; H or OH if unused. Non-standard residues stand in square brackets, D forms with d. Residues, ends and D or L forms follow the SMILES beside them. ξ: configuration not given here. X24 = O=C(C(CC(O)CO)O[*:1])[*:2]; Ile(3ξ) = CCC(C)[C@H](N)C(=O)O; NMeV = CN[C@H](C(=O)O)C(C)C; NMeA = CN[C@@H](C)C(=O)O; βAla = NCCC(=O)O

What value of GI50 has been recorded for this entry: CCOC(=O)C1Nc2ccccc2[C@H]2OCC[C@@H]12 (some centres not stated)
> 100 µM (inactive)

What GI50 value was documented for this molecule, CCC(C)[C@@H]1NC(=O)[C@@H]2CCCN2C(=O)C(CC(O)CO)OC(=O)CCNC(=O)[C@H](C)N(C)C(=O)[C@H](C(C)C)N(C)C1=O (some centres not stated) (cyclo([Ile(3ξ)][NMeV][NMeA][βAla][X24]P)) ?
> 100 µM (inactive)

Given the molecule "COc1ccc2[nH]cc(CCNC(=O)[C@H](Cc3ccccc3)NC(=O)[C@@H](NCC(F)(F)F)C(C)C)c2c1" , what is its reported GI50?
15.6 µM (inactive)

Name the reported GI50 value associated with the molecule "COc1c(C)c2c(c(=O)c3c(C)cccc3n2C)c2c1c(=O)c1c(C)cccc1n2C"
> 10 µM (inactive)

Value lookup for GI50; key = "CCSCCCC(=O)O"
> 100 µM (inactive)

# GI50 lookup, item "CCOC(=O)NN1C(=O)C(=P(c2ccccc2)(c2ccccc2)c2ccccc2)C(C(=O)OCC)=C1C"
> 100 µM (inactive)

What does the data say about its GI50? Entry: "Cc1cc2c(=O)[nH]nc(N)c2c(N)n1"
> 100 µM (inactive)

What value of GI50 has been reported for the following molecule? "O=C(NCCCNCCN1C(=O)c2cccc3cc([N+](=O)[O-])cc(c23)C1=O)c1cc(-c2ccccc2)nc2ccccc12"
1.49 µM (inactive)

Can you look up the measured GI50 of CCC12CCCNC1c1c(n(C)c3ccccc13)C(C(=O)OC)C2 (configuration not stated) for me?
36.5 µM (inactive)

Can you share its GI50? I mean this molecule: CC1C(=O)CC(c2cccs2)N(N=O)C1c1cccs1 (configuration not stated)
24.9 µM (inactive)

Fill blank: measured GI50 of the molecule "N#CCCc1nc2ccc(Br)cc2c(=O)n1-c1ccc(O)c([N+](=O)[O-])c1" is ____.
18.1 µM (inactive)

Could you tell me which GI50 is on file for "CN1CCN(CCCN)CC1" ?
> 100 µM (inactive)

// GI50 lookup, key: "CCOc1cnc(C(O)(c2ccccc2)c2ccccc2)o1"
> 100 µM (inactive)

Which GI50 is listed for "COc1ccc(-c2cc(C(=O)Nc3cccc(C(F)(F)F)c3)nc(S)n2)cc1" ?
> 100 µM (inactive)

Look up GI50: "O=C(Cc1ccccc1)Oc1ccc2c(-c3ccccc3)c(C(=O)Nc3ccc(Cl)cc3)c(=O)oc2c1"
> 100 µM (inactive)

Consider the molecule shown here: "CN(C)CCCN1c2ccc([N+](=O)[O-])cc2CCc2cc([N+](=O)[O-])ccc21" What is its recorded GI50?
11.7 µM (inactive)

Name the reported GI50 value associated with the molecule N#Cc1c(-c2ccccc2)cc(-c2ccccc2)n(C2OCC(O)C(O)C2O)c1=S (configuration not stated)
18.4 µM (inactive)

I have this molecule here, "O=C1CC(=O)NC(NN2C(=O)/C(=C/C(=O)c3ccco3)N=C2c2ccccc2)=N1" , and I need its recorded GI50.
66.8 µM (inactive)

Quick one: GI50 of CC(=O)O[C@H]1CC[C@@]2(C)C(=CC[C@@H]3C2CC[C@]2(C)Nc4c(cnn4-c4ccccc4)CC32)C1 (some centres not stated) ?
3.53 µM (inactive)

Find the recorded GI50 belonging to CC(NC1CCCC[C@@H]1O)c1ccccc1 (some centres not stated) and report it.
> 100 µM (inactive)

Name the recorded GI50 for "N#C/N=C(/N)NCO" .
16.5 µM (inactive)

Suppose we examine the molecule "Cn1c(=O)c2c(nc3sc4c(n32)C(=O)c2c(O)ccc(O)c2C4=O)n(C)c1=O" ; what GI50 value has been reported?
2.68 µM (inactive)

Which GI50 is listed for "CCOC(=O)/C=C/c1c[nH]c(=O)[nH]c1=O" ?
> 75 µM (inactive)

GI50 lookup needed for "O=C1NCC2(CCNCC2)N1" , thanks.
> 100 µM (inactive)

Need GI50 of "C=C1c2ccccc2N(S(=O)(=O)c2ccc(C)cc2)C12CCCCC2" , thanks.
45.6 µM (inactive)

Requested field: GI50. Item: "O=C(c1ccc(Cl)cc1Cl)N(Cc1cccnc1)C(=S)N(Cc1cccnc1)C(=O)c1ccc(Cl)cc1Cl"
6.43 µM (inactive)

Reported GI50 for O=C1c2c(O)cccc2Cc2cccc(O)c21 [ANTHRALIN] : what is it?
0.32 µM (active)

Returns the measured GI50 for the input molecule. Input: "Nc1cc(OCC2CCCCC2)nc(N)n1"
> 100 µM (inactive)

Query: GI50; subject: "CN(C)Cc1cc(/N=N/c2c(Cl)cccc2Cl)ccc1O"
23.4 µM (inactive)

Look up GI50: "COC(=O)C1=C(O)C(O)=C(C(=O)OC)C1"
> 100 µM (inactive)

What does the record list as GI50 for "Cc1ccc(NC(=O)/C(C#N)=C/c2ccccc2)c(C)c1" ?
> 100 µM (inactive)

Could you share which GI50 value was measured for "O=C1NC(N2CCCCC2)=N/C1=C\c1ccccc1" ?
> 100 µM (inactive)

// GI50 lookup, key: "Cc1cccc(C(C)(C)C)c1NC(=O)CCc1nnc(S)[nH]1"
> 100 µM (inactive)

Name the recorded GI50 for "O=C(O)C(Cl)(c1ccccc1)c1ccccc1" .
> 100 µM (inactive)

# query: GI50 of entry "O=Cc1ccc2ccocc1-2"
> 100 µM (inactive)

Tell me the measured GI50 of "CC(C)=CCC[C@@H](C)C1=C(O)C(=O)C(C)=C(Nc2ccccc2Cl)C1=O" , please.
22.3 µM (inactive)

Recorded GI50 of "COc1ccc(C(=O)/C=C/c2ccncc2)cc1OC" , please.
12.6 µM (inactive)
